measurementProtocol: primary screen for suppressors of beta-catenin knockout HCT116 cell growth, colon tumor, human (AID 818)
measurementSetup: CellTiter-Glo, 60 h, at 10 µM
The campaign covered roughly 140,000 compounds. About 2,100 (1.5%) were called active.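 How the source made its calls: active means viability at or under a set limit, the compound median less 4 SD (cut at about 6% in these data); inactive means the rest.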 For the sample, actives were picked, then their nearest neighbours and some compounds at random.
Possible outcomes: active, inactive

>  <compound>
COc1ccc(C(CCN(Cc2ccc(OC)c(OC)c2)C(=O)CCl)c2ccccc2)cc1 (configuration not stated)

>  <group>
active

$$$$
>  <compound>
COc1cccc(NC(=S)NCc2ccco2)c1

>  <group>
inactive

$$$$
>  <compound>
c1ccc2c(c1)C(=NC1CCCCC1)NC2=NC1CCCCC1

>  <group>
active

$$$$
>  <compound>
O=C(Cc1cccc2ccccc12)NCCC1=CCCCC1

>  <group>
inactive

$$$$
>  <compound>
CCOC(=O)CN(Cc1ccc(OC)c(OC)c1)S(=O)(=O)c1ccc(OC)cc1

>  <group>
inactive

$$$$
>  <compound>
C=CCn1c(SCC(N)=O)nnc1-c1cc2c(s1)CCC(CC)C2 (configuration not stated)

>  <group>
inactive

$$$$
>  <compound>
Cc1ccc(Cl)cc1N1CCN(C(=O)c2cccc3c(=O)c(C)c(-c4ccccc4)oc23)CC1

>  <group>
active

$$$$
>  <compound>
Cc1noc(COc2ccccc2OCC(O)CNC(C)(C)C)n1 (configuration not stated)

>  <group>
inactive

$$$$
>  <compound>
N#C/C(=C/c1ccc(N2CCCCC2)o1)C(=O)NCCc1c[nH]c2ccccc12

>  <group>
inactive

$$$$
>  <compound>
O=C(Cn1nnc(-c2ccccc2)n1)N/N=C/c1ccc(-c2ccc(Cl)cc2)o1

>  <group>
inactive

$$$$
>  <compound>
Cc1cc(C(=O)NNC(=S)NC(C)c2ccccc2)cs1 (configuration not stated)

>  <group>
inactive

$$$$
>  <compound>
CCC(C)NCCOCCOc1ccc(Br)cc1C (configuration not stated)

>  <group>
inactive

$$$$
>  <compound>
O=C(c1cccc2ccccc12)N1CCN(c2ccccc2F)CC1

>  <group>
inactive

$$$$
>  <compound>
O=C(Nc1ccccc1)/C(=C/c1ccc([N+](=O)[O-])cc1)NC(=O)c1ccccc1

>  <group>
inactive

$$$$
>  <compound>
COc1ccc(/C=C(/CC(=O)Nc2ccc(C)cc2)c2nc3ccccc3s2)cc1

>  <group>
inactive

$$$$
>  <compound>
CCC(CC)C(=O)N1CCN(c2cccc(C)c2C)CC1

>  <group>
inactive

$$$$
>  <compound>
Cc1cccc(NC(=O)c2sc(-c3ccccc3)nc2-c2ccc([N+](=O)[O-])cc2)c1

>  <group>
inactive

$$$$
>  <compound>
COc1cc2c(cc1OC)C(Nc1ccc(S(N)(=O)=O)cc1)=NC(C)(C)C2

>  <group>
inactive

$$$$
>  <compound>
Cc1cc(N2CCOCC2)nc(-c2ccc(Br)cc2)n1

>  <group>
inactive

$$$$
>  <compound>
COc1ccc(CCN(C(=O)COc2ccccc2)c2nc(-c3ccccc3)cs2)cc1OC

>  <group>
inactive

$$$$
>  <compound>
CCCCCC(=O)Nc1ccc(S(=O)(=O)Nc2ccc(Cl)nn2)cc1

>  <group>
inactive

$$$$
>  <compound>
COC(C(=O)Nc1ccc(C(C)=O)cc1)c1ccccc1 (configuration not stated)

>  <group>
inactive

$$$$
